assay remarks: Human liver microsome stability assay (Biological Example 8b)
assay setup: liver microsomes, pH 7.4
property label: half-life at 1 μM

# molecule, property label, result
measured = [
    ("C[C@]12CC[C@H]3[C@@H](CC[C@H]4CC(=O)NCC[C@@]43C)C1=CC=C2c1cccnc1", "half-life at 1 μM", "1 to 50 min"),
    ("C#C[C@]1(O)CC[C@@]2(C)C(CCC3C2CC[C@]2(C)C(c4cccnc4)=CCC32)C1 (stereo partly shown)", "half-life at 1 μM", "> 50 min"),
    ("C[C@]12CCOC(=O)C[C@@H]1CC[C@@H]1[C@@H]2CC[C@]2(C)C(c3cccnc3)=CC[C@@H]12", "half-life at 1 μM", "1 to 50 min"),
    ("COc1cncc(C2=CC=C3[C@@H]4CC=C5C[C@@H](O)CC[C@]5(C)[C@H]4CC[C@]23C)c1", "half-life at 1 μM", "> 50 min"),
    ("CN1CC[C@@]2(C)C(=CC1=O)CC[C@@H]1[C@@H]2CC[C@]2(C)C(n3ccnc3)=CC[C@@H]12", "half-life at 1 μM", "1 to 50 min"),
    ("CC1CC2C3=CC=C(c4cncc(F)c4)[C@@]3(C)CCC2[C@@]2(C)CCC(=O)C=C12 (stereo partly shown)", "half-life at 1 μM", "1 to 50 min"),
    ("C[C@]12CC[C@H]3[C@@H](CCC4=CC(=O)CC[C@@]43C)C1=CC=C2n1ccnc1", "half-life at 1 μM", "> 50 min"),
    ("C[C@]12CCC(=O)C=C1C1(CC1)C[C@@H]1[C@@H]2CC[C@]2(C)C(c3cccnc3)=CC[C@@H]12", "half-life at 1 μM", "1 to 50 min"),
    ("CC1(C)C2=CCC3C4=CC=C(c5cccnc5)[C@@]4(C)CCC3[C@@]2(C)CCC1O (stereo partly shown)", "half-life at 1 μM", "1 to 50 min"),
    ("CCC1CC2C3=CC=C(c4cccnc4)[C@@]3(C)CCC2[C@@]2(C)CCC(=O)C=C12 (stereo partly shown)", "half-life at 1 μM", "1 to 50 min"),
    ("C[C@]12CCC(=O)C(O)=C1C=C[C@@H]1[C@@H]2CC[C@]2(C)C(c3cccnc3)=CC[C@@H]12", "half-life at 1 μM", "1 to 50 min"),
    ("C[C@]12CCC3C(CCC4=CC(=NO)CC[C@@]43C)C1=CC=C2c1cccnc1 (stereo partly shown)", "half-life at 1 μM", "1 to 50 min"),
    ("C[C@]12CCCC(=O)CC1=CC[C@@H]1[C@@H]2CC[C@]2(C)C(c3cnccn3)=CC[C@@H]12", "half-life at 1 μM", "1 to 50 min"),
    ("C[C@]12CCC3C(CC(F)[C@@]4(O)C[C@@H](O)CC[C@]34C)C1CC=C2c1cccnc1 (stereo partly shown)", "half-life at 1 μM", "1 to 50 min"),
    ("C[C@]12C=CC(=O)C=C1C1(CC1)C[C@@H]1[C@@H]2CC[C@]2(C)C(c3cccnc3)=CC[C@@H]12", "half-life at 1 μM", "1 to 50 min"),
    ("C[C@]12CCC(=O)CCC1=CCC1[C@@H]2CC[C@]2(C)C(n3ccnc3)=CC[C@@H]12 (stereo partly shown)", "half-life at 1 μM", "1 to 50 min"),
    ("C[C@]12CCC(=O)OC[C@@H]1CC[C@@H]1[C@@H]2CC[C@]2(C)C(c3cccnc3)=CC[C@@H]12", "half-life at 1 μM", "1 to 50 min"),
    ("C[C@]12CCC(=O)C=C1C=CC1C2CC[C@]2(C)C(c3cccnc3)=CCC12 (stereo partly shown)", "half-life at 1 μM", "1 to 50 min"),
    ("CC1C[C@@H]2[C@H](CC[C@]3(C)C(c4cccnc4)CC[C@@H]23)[C@@]2(C)C=CC(=O)C=C12 (stereo partly shown)", "half-life at 1 μM", "1 to 50 min"),
    ("C[C@]12CCC(=O)C=C1C(F)C[C@@H]1[C@@H]2CC[C@]2(C)C(c3cncc(F)c3)=CC[C@@H]12 (stereo partly shown)", "half-life at 1 μM", "1 to 50 min"),
    ("CC(=O)NC1CC[C@@]2(C)C(=CCC3C2CC[C@]2(C)C(n4ccnc4)=CCC32)C1 (stereo partly shown)", "half-life at 1 μM", "> 50 min"),
    ("C[C@]12CCNC(=O)C=C1CC[C@@H]1[C@@H]2CC[C@]2(C)C(n3ccnn3)=CC[C@@H]12", "half-life at 1 μM", "> 50 min"),
    ("C[C@]12CCNC(=O)C=C1C1CC1[C@@H]1[C@@H]2CC[C@]2(C)C(c3cccnc3)=CC[C@@H]12 (stereo partly shown)", "half-life at 1 μM", "1 to 50 min"),
    ("C[C@]1(O)CC[C@@]2(C)C(CCC3C2CC[C@]2(C)C(c4cncc(F)c4)=CCC32)C1 (stereo partly shown)", "half-life at 1 μM", "1 to 50 min"),
    ("C[C@]12CCC3C(CC(F)C4(O)C[C@@H](O)CC[C@]34C)C1CC=C2c1cncc(F)c1 (stereo partly shown)", "half-life at 1 μM", "1 to 50 min"),
    ("CC1C[C@H]2C3=CC=C(c4cccnc4)[C@@]3(C)CC[C@@H]2[C@@]2(C)CCC(=O)C=C12 (stereo partly shown)", "half-life at 1 μM", "1 to 50 min"),
    ("Cc1ccncc1C1=CC=C2[C@@H]3CC=C4C[C@@H](O)CC[C@]4(C)[C@H]3CC[C@]12C", "half-life at 1 μM", "1 to 50 min"),
    ("CC1C[C@H]2C3=CC=C(c4cccnc4)[C@@]3(C)CC[C@@H]2[C@@]2(C)C=CC(=O)C=C12 (stereo partly shown)", "half-life at 1 μM", "1 to 50 min"),
]

----------
Listed here are compounds together with their documented inhibition at 0.001 µM.
test system: CYP17 (human testicular microsome) (Homo sapiens)
Construct: using microsomal fraction from human testis (Celsis Cat #S00110) as the enzyme source; tissue Celsis S00110; host or cells: human testis microsomal fraction
Sequence (P05093 whole entry): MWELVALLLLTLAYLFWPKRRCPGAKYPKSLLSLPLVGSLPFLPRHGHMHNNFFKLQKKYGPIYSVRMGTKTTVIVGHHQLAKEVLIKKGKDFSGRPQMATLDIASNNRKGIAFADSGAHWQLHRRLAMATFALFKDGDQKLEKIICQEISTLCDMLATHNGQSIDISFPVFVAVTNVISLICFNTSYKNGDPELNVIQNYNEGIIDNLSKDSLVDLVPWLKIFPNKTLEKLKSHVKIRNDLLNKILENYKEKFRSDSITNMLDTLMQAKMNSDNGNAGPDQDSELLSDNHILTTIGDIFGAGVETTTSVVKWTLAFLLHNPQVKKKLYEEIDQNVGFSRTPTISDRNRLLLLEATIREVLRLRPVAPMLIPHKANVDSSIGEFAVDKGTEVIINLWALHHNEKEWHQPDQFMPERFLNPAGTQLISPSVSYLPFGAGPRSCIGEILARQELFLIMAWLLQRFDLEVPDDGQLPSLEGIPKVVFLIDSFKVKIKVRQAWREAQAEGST
assay remarks: CYP17 enzymatic assay (% inhibition at 1 nM) (Biological Example 12)
Type: biochemical
assay setup: compound at 1 nM, read-out: Biological Example No. 12: CYP17 enzymatic assay % inhibition at 1 nM

# compound, test system, inhibition at 0.001 µM
rows = [
    ("C[C@]12CC[C@H]3[C@@H](CC(CO)C4=CC(=O)CC[C@@]43C)C1=CC=C2c1cccnc1 (some centres unmarked)", "CYP17 (human testicular microsome) (Homo sapiens)", "> 50%"),
    ("COC(=O)c1cncn1C1=CCC2C3CC=C4C[C@@H](O)CC[C@]4(C)C3CC[C@]12C (some centres unmarked)", "CYP17 (human testicular microsome) (Homo sapiens)", "10 to 50%"),
    ("CC1CC2C(CC[C@]3(C)C(c4cccnc4)=CCC23)[C@@]2(C)CC[C@](C)(O)CC12 (some centres unmarked)", "CYP17 (human testicular microsome) (Homo sapiens)", "10 to 50%"),
    ("C[C@]12CCNC(=O)C=C1C1CC1[C@@H]1[C@@H]2CC[C@]2(C)C(c3cccnc3)=CC[C@@H]12 (some centres unmarked)", "CYP17 (human testicular microsome) (Homo sapiens)", "> 50%"),
    ("CC1CC2C3=CC=C(c4cncc(F)c4)[C@@]3(C)CCC2[C@@]2(C)CCNC(=O)C=C12 (some centres unmarked)", "CYP17 (human testicular microsome) (Homo sapiens)", "10 to 50%"),
    ("CC1CC2C3CC=C(c4cccnc4)[C@@]3(C)CCC2[C@@]2(C)CC[C@H](O)CC12O (some centres unmarked)", "CYP17 (human testicular microsome) (Homo sapiens)", "> 50%"),
    ("CC1C[C@@]2(C)C(CC[C@@H]3[C@@H]2CC[C@]2(C)C(c4cccnc4)=CC[C@@H]32)C(C)C1=O (some centres unmarked)", "CYP17 (human testicular microsome) (Homo sapiens)", "< 10%"),
    ("CN1CCC(C(=O)O[C@H]2CC[C@@]3(C)C(=CC[C@H]4C5=CC=C(c6cccnc6)[C@@]5(C)CC[C@@H]43)C2)CC1", "CYP17 (human testicular microsome) (Homo sapiens)", "10 to 50%"),
    ("C[C@]12CCC(=NO)C=C1C(F)CC1C2CC[C@]2(C)C(c3cccnc3)=CCC12 (some centres unmarked)", "CYP17 (human testicular microsome) (Homo sapiens)", "10 to 50%"),
    ("CC1=C2CC[C@@H]3[C@H](CC[C@]4(C)C(c5cccnc5)=CC[C@@H]34)[C@@]2(C)CCC1=O", "CYP17 (human testicular microsome) (Homo sapiens)", "> 50%"),
    ("C[C@]12CCC3(CO3)CC1CCC1C2CC[C@]2(C)C(c3cccnc3)=CCC12 (some centres unmarked)", "CYP17 (human testicular microsome) (Homo sapiens)", "10 to 50%"),
    ("Cc1cc(C2=CCC3C4CC=C5C[C@@H](O)CC[C@]5(C)C4CC[C@]23C)cnc1F (some centres unmarked)", "CYP17 (human testicular microsome) (Homo sapiens)", "< 10%"),
    ("CC1CC2C3=CC=C(c4cncc(C(F)F)c4)[C@@]3(C)CCC2[C@@]2(C)CCNC(=O)C=C12 (some centres unmarked)", "CYP17 (human testicular microsome) (Homo sapiens)", "< 10%"),
    ("C[C@]12CCC(=O)C=C1C1CC1[C@@H]1[C@@H]2CC[C@]2(C)C(c3cccnc3)=CC[C@@H]12 (some centres unmarked)", "CYP17 (human testicular microsome) (Homo sapiens)", "> 50%"),
    ("C[C@]12CC[C@H](O)CC1=CCC1C2CC[C@]2(C)C(c3cncc(Cl)c3)=CCC12 (some centres unmarked)", "CYP17 (human testicular microsome) (Homo sapiens)", "> 50%"),
    ("CC1C[C@@H]2[C@H](CC[C@]3(C)C(c4cccnc4)=CC[C@@H]23)[C@@]2(C)C=CC(=O)C=C12 (some centres unmarked)", "CYP17 (human testicular microsome) (Homo sapiens)", "> 50%"),
    ("Cc1cnc(F)c(C2=CCC3C4CC=C5C[C@@H](O)CC[C@]5(C)C4CC[C@]23C)c1 (some centres unmarked)", "CYP17 (human testicular microsome) (Homo sapiens)", "10 to 50%"),
    ("CC1C[C@@H]2[C@H](CC[C@]3(C)C(c4cncc(F)c4)=CC[C@@H]23)[C@@]2(C)C=CC(=O)C=C12 (some centres unmarked)", "CYP17 (human testicular microsome) (Homo sapiens)", "> 50%"),
    ("CN1C(=O)CC[C@@]2(C)C1=CCC1C2CC[C@]2(C)C(c3cncc(F)c3)=CCC12 (some centres unmarked)", "CYP17 (human testicular microsome) (Homo sapiens)", "10 to 50%"),
    ("C[C@]12CCC3C(CC(F)[C@]4(O)C[C@@H](O)CC[C@]34C)C1CC=C2c1cccnc1 (some centres unmarked)", "CYP17 (human testicular microsome) (Homo sapiens)", "> 50%"),
    ("CC1C(O)CC[C@@]2(C)C1CCC1C2CC[C@]2(C)C(c3cncc(C(F)F)c3)=CCC12 (some centres unmarked)", "CYP17 (human testicular microsome) (Homo sapiens)", "< 10%"),
    ("C[C@]12C=CC(=O)C=C1C1(CC1)C[C@@H]1[C@@H]2CC[C@]2(C)C(c3cccnc3)=CC[C@@H]12", "CYP17 (human testicular microsome) (Homo sapiens)", "10 to 50%"),
    ("C[C@]12CC[C@H](O)CC1=CCC1C2CC[C@]2(C)C(c3ccc(F)nc3)=CCC12 (some centres unmarked)", "CYP17 (human testicular microsome) (Homo sapiens)", "10 to 50%"),
    ("C[C@]12CCC(=O)C=C1C1CC1[C@@H]1[C@@H]2CC[C@]2(C)C(c3cncc(F)c3)=CC[C@@H]12 (some centres unmarked)", "CYP17 (human testicular microsome) (Homo sapiens)", "> 50%"),
    ("C[C@]12CC[C@H]3[C@@H](CC(C4CC4)C4=CC(=O)CC[C@@]43C)C1=CC=C2c1cccnc1 (some centres unmarked)", "CYP17 (human testicular microsome) (Homo sapiens)", "10 to 50%"),
    ("CC1CC2C(CC[C@]3(C)C(c4cncc(F)c4)=CCC23)[C@@]2(C)CCC(=O)C=C12 (some centres unmarked)", "CYP17 (human testicular microsome) (Homo sapiens)", "> 50%"),
    ("C[C@]12CCC(=O)C=C1C(n1ccnn1)CC1C2CC[C@]2(C)C(c3cccnc3)=CCC12 (some centres unmarked)", "CYP17 (human testicular microsome) (Homo sapiens)", "10 to 50%"),
    ("C[C@]12CCC3C(CCC4=CC(=O)CC[C@@]43C)C1=CC=C2c1ccc(F)nc1 (some centres unmarked)", "CYP17 (human testicular microsome) (Homo sapiens)", "10 to 50%"),
    ("C[C@]12CCC(=O)C=C1CCC1C2CC[C@]2(C)C(c3cncc(C(F)F)c3)=CCC12 (some centres unmarked)", "CYP17 (human testicular microsome) (Homo sapiens)", "10 to 50%"),
]
